Tested on: SK-BR-3
Assay: Cell growth inhibition assay (Cell Titer Glo), SK-BR-3
Type: cell-based
Conditions: Homo sapiens; SK-BR-3, single agent, bound stated; read-out: IC50
Readout: IC50

compound="CS(=O)(=O)CCNCc1ccc(-c2ccc3ncnc(Nc4ccc(OCc5cccc(F)c5)c(Cl)c4)c3c2)o1 [Compound A, reference compound]" measurement_target=SK-BR-3 recorded_measurement="< 200 nM"
compound=Cn1ncc(Cl)c1-c1cc(C(=O)N[C@H](CN)Cc2ccc(F)c(F)c2)oc1Cl measurement_target=SK-BR-3 recorded_measurement="> 500 nM"
